- Test system: NCI-H460
- test.protocol: Growth inhibition of human NCI-H460 cells incubated for 48 hrs by sulforhodamine B assay
- Assay type: functional, cell-based
- condition.description: NCI-H460, 48 h, read-out: pTGI (converted)
Measured TGI accompanies every entry in the list below.
endpoint.label: TGI

input.smiles: O=C(Nc1cccc(-n2cc(-c3ccncc3)c(-c3cc(O)cc(Cl)c3)n2)c1)Nc1ccc(Cl)c(C(F)(F)F)c1
result: 7.41 µM
//
input.smiles: COc1cc(Cl)cc(-c2nn(-c3cccc(NC(=O)Nc4cc(C(F)(F)F)cc(C(F)(F)F)c4)c3)cc2-c2ccncc2)c1
result: 1.78 µM
//
input.smiles: COc1cc(Cl)cc(-c2nn(-c3cccc(NC(=O)Nc4ccc(Cl)c(Cl)c4)c3)cc2-c2ccncc2)c1
result: 13.8 µM
//
input.smiles: COc1cc(Cl)cc(-c2nn(-c3cccc(NC(=O)c4ccc(N5CCOCC5)c(C(F)(F)F)c4)c3)cc2-c2ccncc2)c1
result: > 100 µM
